experiment summary: Cytotoxicity against human FHs74Int cells assessed as reduction in cell viability incubated for 48 hrs by AlamarBlue-based assay
Type: toxicity
Reported CC50 at 48 h is given for each of the following molecules.
Enter your answer as a number in µM; do not include the unit.

CC(=O)Nc1ccc(C(=O)/C=C/c2ccco2)cc1    99
O=C(/C=C/c1ccccc1)c1ccc(NC(=O)c2cccs2)cc1    40

Dear colleague, please send me the reported CC50 at 48 h for O=C(/C=C/c1ccc([N+](=O)[O-])cc1)c1ccc(O)c(O)c1 when you can. 11

Dear colleague, please send me the reported CC50 at 48 h for COc1ccc(C(=O)/C=C/c2ccccc2)cc1 when you can. 37

Dear colleague, please send me the reported CC50 at 48 h for O=C(/C=C/c1cccc([N+](=O)[O-])c1)c1ccc(NC(=O)c2cccs2)cc1 when you can. 24

Dear colleague, please send me the reported CC50 at 48 h for O=C(/C=C/c1ccc(O)cc1)c1ccccc1 [4-HYDROXYCHALCONE] when you can. 97

Dear colleague, please send me the reported CC50 at 48 h for O=C(/C=C/c1ccccc1)c1ccc(O)cc1 [4'-HYDROXYCHALCONE] when you can. 65

Dear colleague, please send me the reported CC50 at 48 h for Nc1ccc(C(=O)/C=C/c2ccco2)cc1 when you can. 86

Dear colleague, please send me the reported CC50 at 48 h for O=C(/C=C/c1ccccc1)c1ccccc1 when you can. 46

Dear colleague, please send me the reported CC50 at 48 h for O=C(/C=C/c1ccccc1)c1ccc(NC(=O)c2ccccc2)cc1 when you can. 60

Dear colleague, please send me the reported CC50 at 48 h for Nc1ccc(C(=O)/C=C/c2ccccc2)cc1 when you can. 97

Dear colleague, please send me the reported CC50 at 48 h for CC(=O)Nc1ccc(C(=O)/C=C/c2cccc([N+](=O)[O-])c2)cc1 when you can. 12
